- RUN_DESCRIPTION: Pharmacokinetic experiment, dog test, intravenous injection
- Assay type: in vivo
- DETAILS: dog, plasma, male Beagle, 0.5 mg/kg, read-out: Area under the curve AUC0-t
QUANTITY: AUC(0-t) (ng·h/mL)
Numbers only, in ng·h/mL.

// AUC(0-t) lookup, molecule = COc1c([C@H]2[C@H](C(=O)Nc3ccnc(C(N)=O)c3)O[C@@](C)(C(F)(F)F)[C@H]2C)ccc(F)c1F [VX-548, reference compound] , result: 11100
